Entry source: patent US20180252712A1

# Tested on: MNoV^CR6
# Procedure details: CRISPR screen in BV2-Cas9 cells, sgRNA enrichment after MNoV^CR6 infection
# Assay type: cell-based, murine norovirus
# Experimental conditions: MNoV^CR6, MOI 5, ten days post-infection
log2 fold enrichment after MNV infection relative to mock infected cells, CR6 MOI 5 strictly under 10 log2 fold enrichment means Condition met; at 10 log2 fold enrichment or over means Condition not met.

Exam item: Is 10 log2 fold enrichment strictly greater than the substance's reported log2 fold enrichment after MNV infection relative to mock infected cells, CR6 MOI 5? substance: TACCACGCCACAGGACTCCA: sgRNA used in screen, matches CD300lg (listed as DNA, chemistry not given here)
Marked response: Condition met

Exam item: Is 10 log2 fold enrichment strictly greater than the substance's reported log2 fold enrichment after MNV infection relative to mock infected cells, CR6 MOI 5? substance: GTTACTGTGAACATTGGCCC: sgRNA used in screen, matches CD300lf (listed as DNA, chemistry not given here)
Marked response: Condition not met

Exam item: Is 10 log2 fold enrichment strictly greater than the substance's reported log2 fold enrichment after MNV infection relative to mock infected cells, CR6 MOI 5? substance: ACAGGTCCAGAGGAGGTGAG: sgRNA used in screen, matches CD300ld, CD300lf, CD300lh (listed as DNA, chemistry not given here)
Marked response: Condition not met

Exam item: Is 10 log2 fold enrichment strictly greater than the substance's reported log2 fold enrichment after MNV infection relative to mock infected cells, CR6 MOI 5? substance: CGTAGCCAGACACAGAGCCA: sgRNA used in screen, matches CD300le (listed as DNA, chemistry not given here)
Marked response: Condition met

Exam item: Is 10 log2 fold enrichment strictly greater than the substance's reported log2 fold enrichment after MNV infection relative to mock infected cells, CR6 MOI 5? substance: TCAGAGAAAGAAACGAAGAG: sgRNA used in screen, matches CD300lb (listed as DNA, chemistry not given here)
Marked response: Condition met

* * *

Please respond with reported log2 fold enrichment after MNV infection relative to mock infected cells, CW3 MOI 0.05 for every item in the list.
# System: MNoV^CW3
# Procedure details: CRISPR screen in BV2-Cas9 cells, sgRNA enrichment after MNoV^CW3 infection
# Assay type: cell-based, murine norovirus
# Experimental conditions: MNoV^CW3, MOI 0.05, ten days post-infection
The response must be a number in log2 fold enrichment with no trailing unit.

Documented log2 fold enrichment after MNV infection relative to mock infected cells, CW3 MOI 0.05 of GAGTGTGTCATGTCGATATG: sgRNA used in screen, matches CD300la (listed as DNA, chemistry not given here) : −6.2

Documented log2 fold enrichment after MNV infection relative to mock infected cells, CW3 MOI 0.05 of GGTCGTCCCTGATGGACACA: sgRNA used in screen, matches CD300lh (listed as DNA, chemistry not given here) : 12.0

Documented log2 fold enrichment after MNV infection relative to mock infected cells, CW3 MOI 0.05 of TAGAGCAGAGAACTGCCACA: sgRNA used in screen, matches CD300ld (listed as DNA, chemistry not given here) : −6.7

* * *

# Tested on: MNoV^CW3
# Procedure details: CRISPR screen in BV2-Cas9 cells, sgRNA enrichment after MNoV^CW3 infection
# Assay type: cell-based, murine norovirus
# Experimental conditions: MNoV^CW3, MOI 0.05, ten days post-infection
Quantity kind: log2 fold enrichment after MNV infection relative to mock infected cells, CW3 MOI 0.05 (log2 fold enrichment)
The response must be a number in log2 fold enrichment with no trailing unit.

Documented log2 fold enrichment after MNV infection relative to mock infected cells, CW3 MOI 0.05 of GGATCCAGTCACAGGTCCAG: sgRNA used in screen, matches CD300lf, CD300lh (listed as DNA, chemistry not given here) : 0.0

Documented log2 fold enrichment after MNV infection relative to mock infected cells, CW3 MOI 0.05 of GGAAGAGGATGAGCAGAGCA: sgRNA used in screen, no identical CD300 match marked (listed as DNA, chemistry not given here) : −6.4

Documented log2 fold enrichment after MNV infection relative to mock infected cells, CW3 MOI 0.05 of GTTACTGTGAACATTGGCCC: sgRNA used in screen, matches CD300lf (listed as DNA, chemistry not given here) : 0.0

Documented log2 fold enrichment after MNV infection relative to mock infected cells, CW3 MOI 0.05 of TGTCACTGTGAAGATGGTGG: sgRNA used in screen, matches CD300lf (listed as DNA, chemistry not given here) : 8.4

Documented log2 fold enrichment after MNV infection relative to mock infected cells, CW3 MOI 0.05 of ACAGGTCCAGAGGAGGTGAG: sgRNA used in screen, matches CD300ld, CD300lf, CD300lh (listed as DNA, chemistry not given here) : 0.0

Documented log2 fold enrichment after MNV infection relative to mock infected cells, CW3 MOI 0.05 of CTCCACGTAGGTACACCGCA: sgRNA used in screen, matches CD300lg (listed as DNA, chemistry not given here) : −5.8

Documented log2 fold enrichment after MNV infection relative to mock infected cells, CW3 MOI 0.05 of CTACGCAAATCAGGACCAGG: sgRNA used in screen, matches CD300lg (listed as DNA, chemistry not given here) : −6.4

Documented log2 fold enrichment after MNV infection relative to mock infected cells, CW3 MOI 0.05 of CTAGCTACTACTCTGATAAC: sgRNA used in screen, matches CD300lf (listed as DNA, chemistry not given here) : 0.0

Documented log2 fold enrichment after MNV infection relative to mock infected cells, CW3 MOI 0.05 of TACCACGCCACAGGACTCCA: sgRNA used in screen, matches CD300lg (listed as DNA, chemistry not given here) : 0.0

Documented log2 fold enrichment after MNV infection relative to mock infected cells, CW3 MOI 0.05 of GCAGCAAATCCAAATCTCAG: sgRNA used in screen, matches CD300lb (listed as DNA, chemistry not given here) : −5.8

Documented log2 fold enrichment after MNV infection relative to mock infected cells, CW3 MOI 0.05 of GCCCTTGCTACTTACCTGGG: sgRNA used in screen, matches CD300ld (listed as DNA, chemistry not given here) : 0.0

Documented log2 fold enrichment after MNV infection relative to mock infected cells, CW3 MOI 0.05 of ACGGAAGTGAGAAAGAAAAG: sgRNA used in screen, matches CD300le (listed as DNA, chemistry not given here) : −6.6

Documented log2 fold enrichment after MNV infection relative to mock infected cells, CW3 MOI 0.05 of TCAGAGAAAGAAACGAAGAG: sgRNA used in screen, matches CD300lb (listed as DNA, chemistry not given here) : −5.5

Documented log2 fold enrichment after MNV infection relative to mock infected cells, CW3 MOI 0.05 of CGTAGCCAGACACAGAGCCA: sgRNA used in screen, matches CD300le (listed as DNA, chemistry not given here) : −5.9

* * *

Please respond with reported log2 fold enrichment after MNV infection relative to mock infected cells, CR6 MOI 0.05 for every item in the list.
# Tested on: MNoV^CR6
# Procedure details: CRISPR screen in BV2-Cas9 cells, sgRNA enrichment after MNoV^CR6 infection
# Format: cell-based, murine norovirus
# Experimental conditions: MNoV^CR6, MOI 0.05, ten days post-infection
The response must be a number in log2 fold enrichment with no trailing unit.

Documented log2 fold enrichment after MNV infection relative to mock infected cells, CR6 MOI 0.05 of ACAGGTCCAGAGGAGGTGAG: sgRNA used in screen, matches CD300ld, CD300lf, CD300lh (listed as DNA, chemistry not given here) : 0.0

Documented log2 fold enrichment after MNV infection relative to mock infected cells, CR6 MOI 0.05 of CGTAGCCAGACACAGAGCCA: sgRNA used in screen, matches CD300le (listed as DNA, chemistry not given here) : −5.8

Documented log2 fold enrichment after MNV infection relative to mock infected cells, CR6 MOI 0.05 of CTCCACGTAGGTACACCGCA: sgRNA used in screen, matches CD300lg (listed as DNA, chemistry not given here) : −5.6

Documented log2 fold enrichment after MNV infection relative to mock infected cells, CR6 MOI 0.05 of TGTCACTGTGAAGATGGTGG: sgRNA used in screen, matches CD300lf (listed as DNA, chemistry not given here) : 7.2

Documented log2 fold enrichment after MNV infection relative to mock infected cells, CR6 MOI 0.05 of TAGAGCAGAGAACTGCCACA: sgRNA used in screen, matches CD300ld (listed as DNA, chemistry not given here) : −6.7

Documented log2 fold enrichment after MNV infection relative to mock infected cells, CR6 MOI 0.05 of GGAAGAGGATGAGCAGAGCA: sgRNA used in screen, no identical CD300 match marked (listed as DNA, chemistry not given here) : −6.4

Documented log2 fold enrichment after MNV infection relative to mock infected cells, CR6 MOI 0.05 of CATAGGTCACTGTAAAGGTG: sgRNA used in screen, matches CD300la (listed as DNA, chemistry not given here) : −7.2

Documented log2 fold enrichment after MNV infection relative to mock infected cells, CR6 MOI 0.05 of CCTGTGATCCAGAAGAGAAA: sgRNA used in screen, matches CD300lf (listed as DNA, chemistry not given here) : 9.6

Documented log2 fold enrichment after MNV infection relative to mock infected cells, CR6 MOI 0.05 of GCTACTTACCTGGGAGGAAA: sgRNA used in screen, matches CD300lh (listed as DNA, chemistry not given here) : −5.9

Documented log2 fold enrichment after MNV infection relative to mock infected cells, CR6 MOI 0.05 of TCAGAGAAAGAAACGAAGAG: sgRNA used in screen, matches CD300lb (listed as DNA, chemistry not given here) : −5.5

Documented log2 fold enrichment after MNV infection relative to mock infected cells, CR6 MOI 0.05 of GCAGCAAATCCAAATCTCAG: sgRNA used in screen, matches CD300lb (listed as DNA, chemistry not given here) : −5.8

Documented log2 fold enrichment after MNV infection relative to mock infected cells, CR6 MOI 0.05 of GCCCTTGCTACTTACCTGGG: sgRNA used in screen, matches CD300ld (listed as DNA, chemistry not given here) : 0.0

Documented log2 fold enrichment after MNV infection relative to mock infected cells, CR6 MOI 0.05 of TACCACGCCACAGGACTCCA: sgRNA used in screen, matches CD300lg (listed as DNA, chemistry not given here) : 0.0

Documented log2 fold enrichment after MNV infection relative to mock infected cells, CR6 MOI 0.05 of ACGGAAGTGAGAAAGAAAAG: sgRNA used in screen, matches CD300le (listed as DNA, chemistry not given here) : −6.6
